# test.system: PCAF (Homo sapiens, UniProt Q92831)
# Construct: T7 phage strains displaying bromodomains were grown in parallel
# Sequence (Q92831 723-827 limits assumed): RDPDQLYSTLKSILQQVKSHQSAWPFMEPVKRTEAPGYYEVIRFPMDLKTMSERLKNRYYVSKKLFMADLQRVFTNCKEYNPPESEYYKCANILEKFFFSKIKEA
# assay.info: BromoKdMAX (BROMOscan, DiscoverX)
# assay.conditions: PCAF (KAT2B)
pKd: −log10 of the molar value.
outcome.measure: pKd

stdin: Find the measured pKd of COc1cncc(-c2cc(Nc3cccc(F)c3)nc([C@@H]3CC[C@H](C)N(C(C)=O)C3)n2)c1 with PCAF (Homo sapiens, UniProt Q92831) as test system.
stdout: < 5.00

// provenance: patent US12478624B2
